# key: entry, value: abundance fitness
B1: Zinc finger homeobox protein 4, residues 2086 to 2141; numbered along this chain, Q86UP3 (parent)
chain: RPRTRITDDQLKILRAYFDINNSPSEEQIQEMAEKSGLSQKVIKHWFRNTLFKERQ

variants of: B1; assay: abundance fitness (aPCA) (normalised: wild type 0, dead -1); higher = more abundant; growth selection in yeast, the domain comes from the species named; settings: Homo sapiens
When you answer, write just the number.

[
  {
    "mutationKey": "I43G",
    "experimentalValue": -1.24
  }
]

Record Q40I . Reported abundance fitness: -0.091

// recorded abundance fitness for N21W : -0.111

Note to self: abundance fitness recorded for E31I was -0.09

The recorded abundance fitness for K44D is 0.068

Item: N21H | abundance fitness: -0.117

Per the records, this variant ( K44R ) has abundance fitness equal to -0.01

Recorded abundance fitness (variant F52G ): 0.035

Value of measured abundance fitness for the entry S36Q : -0.342

According to the records, this variant K41P displays abundance fitness of -0.307

For reference, reported abundance fitness for F47M stands at -0.097
